# target_entity: c-Kit(V654A) (Homo sapiens, UniProt P10721, V654A)
# assay_overview: c-Kit(V654A) assay
# Type: biochemical
# experimental_setup: Table 1; 200 μM ATP
# Method: c-Kit(V654A) (N-terminal GST-tagged, recombinant human c-Kit, amino acids 544-end containing the V654A mutation) is incubated with 8 mM MOPS pH 7.0, 0.2 mM EDTA, 250 μM GGMEDIYEFMGGKKK, 10 mM MgAcetate and [gamma-33P-ATP](specific activity approx. 500 cpm/pmol, concentration 200 μM). The reaction is initiated by the addition of the MgATP mix. After incubation for 40 minutes at room temperature, the reaction is stopped by the addition of 3% phosphoric acid solution. […]
pIC50: −log10 of the molar value.
recorded_metric: pIC50

compound | pIC50
COCCOc1cc2[nH]nc(-c3cc(-c4ccc(C(=O)N5CC(N6CCOCC6)C5)nc4)no3)c2cc1F [A69] | 7.70

a. COCCOc1cc2[nH]nc(-c3cc(-c4ccc(C(=O)N5CCC6(COC6)C5)cc4)no3)c2cc1F [A158]
b. COCCOc1cc2[nH]nc(-c3cc(-c4ccc(C(=O)N=S(C)(C)=O)cc4)no3)c2cc1F [A35]
Q: Choose between a and b : whose measured pIC50 value is numerically larger? Identify your selection by its label.
A: a
(a: 9.34, b: 8.20)

I. COCCOc1cc2[nH]nc(-c3cc(-c4ccc(C(=O)N5CCN(C6COC6)CC5C)cc4)no3)c2cc1F (stereo not shown) [A174]
II. COCCOc1cc2[nH]nc(-c3cc(-c4ccc(C(=O)N5CC(O)(c6ccncc6)C5)cc4)no3)c2cc1F [A206]
Q: Given the listed items, does I or II have the lesser reported pIC50? Identify your selection by its label.
A: I
(I: 8.89, II: 9.17)

a. COCCOc1cc2[nH]nc(-c3cc(-c4ccc(C(=O)N5CCC[C@@H]5CO)cc4)no3)c2cc1F [A52]
b. COCCOc1cc2[nH]nc(-c3cc(-c4ccc(-n5ccccc5=O)cc4)no3)c2cc1F [A41]
Q: Given the listed items, does a or b have the lesser reported pIC50? Identify your selection by its label.
A: b
(b: 8.51, a: 9.09)

a. COCCOc1cc2[nH]nc(-c3cc(-c4ccc(C(=O)N5CC(N6CCN(C)CC6)C5)cc4)no3)c2cc1Cl [A65]
b. COCCOc1cc2[nH]nc(-c3cc(-c4ccc(-n5ncccc5=O)cc4)no3)c2cc1F [A142]
c. COCCOc1cc2[nH]nc(-c3cc(-c4ccc(C(=O)N5CCO[C@H](C)C5)cc4)no3)c2cc1F [A180]
Q: # rank_down: sort by pIC50, max first // format: requested-order list of labels
A: a, c, b

====

# target_entity: mutant cKIT (560-576 and V654A) in GIST430/654 cell line (Homo sapiens (Human), UniProt P10721, DEL560-576/V654A)
# Sequence (P10721 other isoform, or with tags, fused parts or gaps V654A/del 1-25/del 560-576 limits assumed): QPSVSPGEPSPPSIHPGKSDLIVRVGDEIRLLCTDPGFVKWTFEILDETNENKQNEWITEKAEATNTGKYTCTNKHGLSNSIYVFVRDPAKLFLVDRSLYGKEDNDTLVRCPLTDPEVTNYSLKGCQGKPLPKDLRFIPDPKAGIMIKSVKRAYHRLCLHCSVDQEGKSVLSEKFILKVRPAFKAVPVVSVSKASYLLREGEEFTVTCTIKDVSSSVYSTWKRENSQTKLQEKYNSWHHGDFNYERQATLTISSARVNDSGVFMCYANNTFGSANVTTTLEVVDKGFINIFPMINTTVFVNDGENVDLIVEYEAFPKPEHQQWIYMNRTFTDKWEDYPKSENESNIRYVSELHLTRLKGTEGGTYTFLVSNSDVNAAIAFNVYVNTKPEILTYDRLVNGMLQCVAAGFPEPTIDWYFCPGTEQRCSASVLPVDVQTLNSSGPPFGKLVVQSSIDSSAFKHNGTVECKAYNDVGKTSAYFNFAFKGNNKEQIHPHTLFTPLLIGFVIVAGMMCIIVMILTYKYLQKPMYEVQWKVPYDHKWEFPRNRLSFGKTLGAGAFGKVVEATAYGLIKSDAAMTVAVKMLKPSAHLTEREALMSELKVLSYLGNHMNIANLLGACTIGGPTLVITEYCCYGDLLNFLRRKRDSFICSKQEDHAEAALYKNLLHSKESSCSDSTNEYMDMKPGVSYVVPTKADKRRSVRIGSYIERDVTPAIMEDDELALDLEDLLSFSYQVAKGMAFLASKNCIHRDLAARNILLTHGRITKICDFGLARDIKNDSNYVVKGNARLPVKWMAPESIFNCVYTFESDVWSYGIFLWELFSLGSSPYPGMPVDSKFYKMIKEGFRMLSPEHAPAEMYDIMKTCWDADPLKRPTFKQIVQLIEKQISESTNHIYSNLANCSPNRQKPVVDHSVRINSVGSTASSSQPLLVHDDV
# assay_overview: Cellular testing of cKIT mutant inhibitors: phospho-Y307-cKIT Luminex assay in GIST430/654 cells
# Format: cell-based
# experimental_setup: Table 1; cKIT autophosphorylation, compounds 45 min; read-out: GIST 430/654 IC50
pIC50: −log10 of the molar value.
recorded_metric: pIC50

compound | pIC50
COCCOc1cc2[nH]nc(-c3cc(-c4ccc(N5CC[C@@H]6[C@H]5CCCN6C)cc4)no3)c2cc1F (relative stereo) | 7.07
COCCOc1cc2[nH]nc(-c3cc(-c4ccc(C(=O)N5CC[C@@H]5C(C)(C)O)cc4)on3)c2cc1F | 7.17
COCCOc1cc2[nH]nc(-c3cc(-c4ccc(C(=O)N5CCOC[C@@H]5COC)cc4)no3)c2cc1F | 7.30
COCCOc1cc2[nH]nc(-c3cc(-c4ccc(-n5ccccc5=O)cc4)no3)c2cc1F | 6.92
COCCOc1cc2[nH]nc(-c3cc(-c4ccc(C(=O)N5CC(N6CC(F)C6)C5)cc4)no3)c2cc1F | 6.80
COCCOc1cc2[nH]nc(-c3cc(-c4ccc(C(=O)N5CCN(C6COC6)C[C@H]5C)cc4)no3)c2cc1F | 7.26
COCCOc1cc2[nH]nc(-c3cc(-c4ccc(N5CCCN(C)CC5)cc4)no3)c2cc1F | 7.42
COCCOc1cc2[nH]nc(-c3cc(-c4ccc(-n5cncn5)cc4)no3)c2cc1Cl | 6.29

1. COCCOc1cc2[nH]nc(-c3cc(-c4ccc(C(=O)N5C[C@H]6C[C@@H]5CO6)cc4)no3)c2cc1F
2. COCCOc1cc2[nH]nc(-c3cc(-c4ccc(C(=O)N5CC6(CCO6)C5)cc4)no3)c2cc1F
Q: Choose between 1 and 2 : whose measured pIC50 value is numerically larger? Identify your selection by its label.
A: 1

A. COCCOc1cc2[nH]nc(-c3cc(-c4ccc(C(=O)N5C[C@H]6CNC[C@H]6C5)cc4)no3)c2cc1F
B. COCCOc1cc2[nH]nc(-c3cc(-c4ccc(C(=O)N5CC(O)(c6ccncc6)C5)cc4)no3)c2cc1F
C. COCCOc1cc2[nH]nc(-c3cc(-c4ccc(C(=O)N5CCC(N6CCOCC6)C5)cc4)no3)c2cc1F (stereo not shown)
D. COCCOc1cc2[nH]nc(-c3cc(-c4ccc(C(=O)N5CC(C#N)C5)nc4)no3)c2cc1F
Q: Order each entry by recorded pIC50, climbing from the minimum. // format: requested-order list of labels
A: D, A, B, C
(D: 6.13, A: 6.42, B: 7.10, C: 7.34)

I. COCCOc1cc2[nH]nc(-c3cc(-c4ccc(C(=O)N5CCOCC56COC6)cc4)no3)c2cc1F
II. COCCOc1cc2[nH]nc(-c3cc(-c4ccc(C(=O)N5CC(S(C)(=O)=O)C5)cc4)no3)c2cc1F
III. COCCOc1cc2[nH]nc(-c3cc(-c4ccc(N5CCN(C)CC5)nc4)no3)c2cc1F
IV. COCCOc1cc2[nH]nc(-c3cc(-c4ccc(C(=O)N5CCN(C6CCOCC6)CC5)cc4)no3)c2cc1F
V. COCCOc1cc2[nH]nc(-c3cc(-c4ccc(Oc5ccccn5)cc4)no3)c2cc1F
Q: # rank_down: sort by pIC50, max first // format: requested-order list of labels
A: IV, I, III, II, V

1. COCCOc1cc2[nH]nc(-c3cc(-c4ccc(N5CCCS5(=O)=O)cc4)no3)c2cc1F
2. COCCOc1cc2[nH]nc(-c3cc(-c4ccc(C(=O)N5CCOC[C@@H]5CO)cc4)no3)c2cc1F
Q: Given the listed items, does 1 or 2 have the lesser reported pIC50? Identify your selection by its label.
A: 1

a. COCCOc1cc2[nH]nc(-c3cc(-c4ccc(C(=O)N=S(C)(C)=O)cc4)no3)c2cc1F
b. COCCOc1cc2[nH]nc(-c3cc(-c4ccc(C(=O)N5C[C@H]6COC[C@H]6C5)c(C)c4)no3)c2cc1F
c. COCCOc1cc2[nH]nc(-c3cc(-c4nc(C(=O)N(C)C)cs4)no3)c2cc1F
d. COCCOc1cc2[nH]nc(-c3cc(-c4ccc(C(=O)N5CC(c6ccnc(C)n6)C5)cc4)no3)c2cc1F
Q: # rank_down: sort by pIC50, max first // format: requested-order list of labels
A: d, b, a, c

I. COCCOc1cc2[nH]nc(-c3cc(-c4ccc(C(=O)N5CCOC[C@H]5CO)cc4)no3)c2cc1F
II. [2H]C1([2H])N(C(=O)c2ccc(-c3cc(-c4n[nH]c5cc(OCCOC)c(F)cc45)on3)cc2)C([2H])([2H])C([2H])([2H])N(C2COC2)C1([2H])[2H]
Q: Given the listed items, does I or II have the lesser reported pIC50? Identify your selection by its label.
A: I

1. O=C(c1ccc(-c2cc(-c3n[nH]c4cc(OCCO)c(F)cc34)on2)cc1)N1CC(N2CCOCC2)C1
2. COCCOc1cc2[nH]nc(-c3cc(-c4ccc(C(=O)NCc5nc6ccccc6[nH]5)cc4)no3)c2cc1F
Q: Choose between 1 and 2 : whose measured pIC50 value is numerically larger? Identify your selection by its label.
A: 1
(1: 6.92, 2: 6.46)

====

# target_entity: c-Kit(V654A) (Homo sapiens, UniProt P10721, V654A)
# assay_overview: c-Kit(V654A) assay
# Assay type: biochemical
# experimental_setup: Table 1; 200 μM ATP
pIC50: −log10 of the molar value.
recorded_metric: pIC50

Previously resolved entries follow.
molecule | target_entity | pIC50
COCCOc1cc2[nH]nc(-c3cc(-c4ccc(C(=O)N(C)C)cn4)no3)c2cc1F [A91] | c-Kit(V654A) (Homo sapiens, UniProt P10721, V654A) | 8.14
COCCOc1cc2[nH]nc(-c3cc(-c4ccc(C(=O)N5CCN(C)CC5)cc4)on3)c2cc1F [A113] | c-Kit(V654A) (Homo sapiens, UniProt P10721, V654A) | 8.59
COCCOc1cc2[nH]nc(-c3cc(-c4ccc(C(=O)N5CC(c6nncn6CCOC)C5)cc4)no3)c2cc1F [A195] | c-Kit(V654A) (Homo sapiens, UniProt P10721, V654A) | 7.85
C[C@H]1CN(C)CCN1C(=O)c1ccc(-c2cc(-c3n[nH]c4cc(-c5cnn(C)c5)ccc34)on2)cc1 [A9] | c-Kit(V654A) (Homo sapiens, UniProt P10721, V654A) | 8.06
COC(CO)COc1cc2[nH]nc(-c3cc(-c4ccc(C(=O)N(C)C)cc4)no3)c2cc1F (centres unmarked) [A49] | c-Kit(V654A) (Homo sapiens, UniProt P10721, V654A) | 8.72
COCCOc1cc2[nH]nc(-c3cc(-c4ccc(C(=O)N5CC[C@@H]5CO)cc4)no3)c2cc1F [A97] | c-Kit(V654A) (Homo sapiens, UniProt P10721, V654A) | 9.01

P. COCCOc1cc2[nH]nc(-c3cc(-c4ccc(C(=O)N5CCN([C@@H]6CCOC6)CC5)cc4)no3)c2cc1F [A185]
Q. COCCOc1cc2[nH]nc(-c3cc(-c4ccc(S(C)(=O)=O)cc4)no3)c2cc1F [A16]
Q: Given the listed items, does P or Q have the lesser reported pIC50? Identify your selection by its label.
A: Q
